Below are compounds with their pIC50 as measured on MMP-13 (Homo sapiens, UniProt P45452).
pIC50: −log10 of the molar value. Structures can show the parent of a compound that is named as a salt.
measured property: pIC50

[[record]]
compound = "Cc1cc(COc2ccc(S(=O)(=O)N(C)[C@H]3[C@@H](C(=O)NO)[C@@H]4CC[C@H]3O4)cc2)c2ccccc2n1 (relative stereo)"
experimental_value = 5.48

[[record]]
compound = "Cc1cc(COc2ccc(S(=O)(=O)N[C@@H]3CN(C=O)C[C@@H]3C(=O)NO)cc2)c2ccccc2n1 (relative stereo)"
experimental_value = 4.99

[[record]]
compound = "Cc1cc(COc2ccc(S(=O)(=O)N[C@@H]3CCN(C=O)C[C@]3(O)C(=O)NO)cc2)c2ccccc2n1 [Example 46, trifluoroacetic acid salt]"
experimental_value = "< 4.78"

[[record]]
compound = "Cc1cc(COc2ccc(S(=O)(=O)N[C@@H]3CN(C(=O)OC(C)(C)C)CCC3C(=O)NO)cc2)c2ccccc2n1 (stereo in doubt)"
experimental_value = "< 4.78"

[[record]]
compound = "Cc1cc(COc2ccc(S(=O)(=O)N(C)[C@@H]3CCOCC3C(=O)NO)cc2)c2ccccc2n1 (stereo in doubt)"
experimental_value = "< 4.78"

[[record]]
compound = "Cc1cc(COc2ccc(S(=O)(=O)N[C@H]3[C@@H](C(=O)NO)[C@@H]4C=C[C@H]3C4)cc2)c2ccccc2n1 (relative stereo)"
experimental_value = "< 4.78"

[[record]]
compound = "Cc1cc(COc2ccc(S(=O)(=O)N(C)C3C4CCC(C4)C3C(=O)NO)cc2)c2ccccc2n1 (single isomer, unassigned) [Example 1a]"
experimental_value = "< 4.78"

[[record]]
compound = "Cc1cc(COc2ccc(S(=O)(=O)N(C)[C@H]3COC[C@H]3C(=O)NO)cc2)c2ccccc2n1 (stereo in doubt)"
experimental_value = "< 4.78"

[[record]]
compound = "Cc1cc(COc2ccc(S(=O)(=O)NC3C(C(=O)NO)C4CCC3N4C(=O)OC(C)(C)C)cc2)c2ccccc2n1 (stereo not shown)"
experimental_value = "< 4.78"

[[record]]
compound = "CCNC(=O)N1C[C@H](C(=O)NO)[C@H](NS(=O)(=O)c2ccc(OCc3cc(C)nc4ccccc34)cc2)C1 (relative stereo)"
experimental_value = "< 4.78"

[[record]]
compound = "Cc1cc(COc2ccc(S(=O)(=O)N[C@@H]3CCN(C=O)C[C@@H]3C(=O)NO)cc2)c2ccccc2n1"
experimental_value = 4.88

[[record]]
compound = "Cc1cc(COc2ccc(S(=O)(=O)N[C@@H]3CCC[C@]3(C)C(=O)NO)cc2)c2ccccc2n1"
experimental_value = "< 4.78"

[[record]]
compound = "Cc1cc(COc2ccc(S(=O)(=O)N[C@@H]3CCN(C(=O)OC(C)(C)C)CC3C(=O)NO)cc2)c2ccccc2n1 (mixture of isomers)"
experimental_value = 4.84

